tested on: SW 1271 complex spheroids, viability; test: Anticancer human tumor SW 1271 cell line growth inhibition [LSD1]; details: second compound 1 µM; first compound 0.1 µM; active = viability on the fitted dose curve at most 10% of control; inactive = the rest;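 note: spheroids exposed to agents for 7 days before luminescence read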
Possible outcomes: active, inactive

[[record]]
molecule = "Nc1ncn(C2CC(O)C(CO)O2)c(=O)n1 (stereo unspecified) + NC1CCC(NC2CC2c2ccccc2)CC1"
tgt = "SW 1271 complex spheroids, viability"
labelclass = "inactive"

[[record]]
molecule = "CC1COCCN1c1cc(C2(S(C)(=N)=O)CC2)nc(-c2ccnc3[nH]ccc23)n1 (stereo unspecified) + NC1CCC(NC2CC2c2ccccc2)CC1"
tgt = "SW 1271 complex spheroids, viability"
labelclass = "inactive"

[[record]]
molecule = "CC(C)c1c(-c2ccccc2)nc2c(C#N)c[nH]n2c1=O + NC1CCC(NC2CC2c2ccccc2)CC1"
tgt = "SW 1271 complex spheroids, viability"
labelclass = "inactive"

[[record]]
molecule = "CC1COCCN1c1cc(-c2ccnn2C)c2ccnc(-c3ccn[nH]3)c2n1 (stereo unspecified) + NC1CC1c1ccc(-c2cccc(O)c2)cc1"
tgt = "SW 1271 complex spheroids, viability"
labelclass = "inactive"

[[record]]
molecule = "O=C(C=Cn1cnc(-c2cc(C(F)(F)F)cc(C(F)(F)F)c2)n1)NNc1cnccn1 + NC1CC1c1ccc(-c2cccc(O)c2)cc1"
tgt = "SW 1271 complex spheroids, viability"
labelclass = "inactive"

[[record]]
molecule = "COc1cc(Nc2ncc3c(n2)-c2ccc(Cl)cc2C(c2c(F)cccc2OC)=NC3)ccc1C(=O)O + NC1CC1c1ccc(-c2cccc(O)c2)cc1"
tgt = "SW 1271 complex spheroids, viability"
labelclass = "inactive"

[[record]]
molecule = "O=C(c1cc(Cc2n[nH]c(=O)c3ccccc23)ccc1F)N1CCN(C(=O)C2CC2)CC1 + NC1CCC(NC2CC2c2ccccc2)CC1"
tgt = "SW 1271 complex spheroids, viability"
labelclass = "inactive"

[[record]]
molecule = "COc1ccc([C@@H](O)c2cc(-c3ncnc4cc(N5CCOCC5)ccc34)c(F)cc2Cl)nn1 + NC1CC1c1ccc(-c2cccc(O)c2)cc1"
tgt = "SW 1271 complex spheroids, viability"
labelclass = "inactive"

[[record]]
molecule = "CC(C)CC(NC(=O)CNC(=O)c1cc(Cl)ccc1Cl)B1OC(=O)CC(CC(=O)O)(C(=O)O)O1 (stereo unspecified) + NC1CC1c1ccc(-c2cccc(O)c2)cc1"
tgt = "SW 1271 complex spheroids, viability"
labelclass = "active"

[[record]]
molecule = "CC(C)CC(NC(=O)C(Cc1ccccc1)NC(=O)c1cnccn1)B(O)O (stereo unspecified) + NC1CCC(NC2CC2c2ccccc2)CC1"
tgt = "SW 1271 complex spheroids, viability"
labelclass = "active"

[[record]]
molecule = "CC(C)c1c(-c2ccccc2)nc2c(C#N)c[nH]n2c1=O + NC1CC1c1ccc(-c2cccc(O)c2)cc1"
tgt = "SW 1271 complex spheroids, viability"
labelclass = "inactive"

[[record]]
molecule = "CC[C@@]1(O)C(=O)OCc2c1cc1n(c2=O)Cc2cc3c(CN(C)C)c(O)ccc3nc2-1 + NC1CC1c1ccc(-c2cccc(O)c2)cc1"
tgt = "SW 1271 complex spheroids, viability"
labelclass = "inactive"

[[record]]
molecule = "O=C(c1cc(Cc2n[nH]c(=O)c3ccccc23)ccc1F)N1CCN(C(=O)C2CC2)CC1 + NC1CC1c1ccc(-c2cccc(O)c2)cc1"
tgt = "SW 1271 complex spheroids, viability"
labelclass = "inactive"

[[record]]
molecule = "Cn1ncnc1C1c2n[nH]c(=O)c3cc(F)cc(c23)NC1c1ccc(F)cc1 (stereo unspecified) + NC1CC1c1ccc(-c2cccc(O)c2)cc1"
tgt = "SW 1271 complex spheroids, viability"
labelclass = "inactive"

[[record]]
molecule = "COc1ccc([C@@H](O)c2cc(-c3ncnc4cc(N5CCOCC5)ccc34)c(F)cc2Cl)nn1 + NC1CCC(NC2CC2c2ccccc2)CC1"
tgt = "SW 1271 complex spheroids, viability"
labelclass = "inactive"

[[record]]
molecule = "Cn1ncnc1C1c2n[nH]c(=O)c3cc(F)cc(c23)NC1c1ccc(F)cc1 (stereo unspecified) + NC1CCC(NC2CC2c2ccccc2)CC1"
tgt = "SW 1271 complex spheroids, viability"
labelclass = "inactive"

[[record]]
molecule = "Nc1ncn(C2CC(O)C(CO)O2)c(=O)n1 (stereo unspecified) + NC1CC1c1ccc(-c2cccc(O)c2)cc1"
tgt = "SW 1271 complex spheroids, viability"
labelclass = "inactive"

[[record]]
molecule = "CC(C)CC(NC(=O)CNC(=O)c1cc(Cl)ccc1Cl)B1OC(=O)CC(CC(=O)O)(C(=O)O)O1 (stereo unspecified) + NC1CCC(NC2CC2c2ccccc2)CC1"
tgt = "SW 1271 complex spheroids, viability"
labelclass = "active"

[[record]]
molecule = "COc1cc(Nc2ncc3c(n2)-c2ccc(Cl)cc2C(c2c(F)cccc2OC)=NC3)ccc1C(=O)O + NC1CCC(NC2CC2c2ccccc2)CC1"
tgt = "SW 1271 complex spheroids, viability"
labelclass = "inactive"

[[record]]
molecule = "CC1COCCN1c1cc(C2(S(C)(=N)=O)CC2)nc(-c2ccnc3[nH]ccc23)n1 (stereo unspecified) + NC1CC1c1ccc(-c2cccc(O)c2)cc1"
tgt = "SW 1271 complex spheroids, viability"
labelclass = "inactive"

[[record]]
molecule = "CC1COCCN1c1cc(-c2ccnn2C)c2ccnc(-c3ccn[nH]3)c2n1 (stereo unspecified) + NC1CCC(NC2CC2c2ccccc2)CC1"
tgt = "SW 1271 complex spheroids, viability"
labelclass = "inactive"

[[record]]
molecule = "CC1(C)CCC(CN2CCN(c3ccc(C(=O)NS(=O)(=O)c4ccc(NCC5CCOCC5)c([N+](=O)[O-])c4)c(Oc4cnc5[nH]ccc5c4)c3)CC2)=C(c2ccc(Cl)cc2)C1 + NC1CC1c1ccc(-c2cccc(O)c2)cc1"
tgt = "SW 1271 complex spheroids, viability"
labelclass = "inactive"

[[record]]
molecule = "CC[C@@]1(O)C(=O)OCc2c1cc1n(c2=O)Cc2cc3c(CN(C)C)c(O)ccc3nc2-1 + NC1CCC(NC2CC2c2ccccc2)CC1"
tgt = "SW 1271 complex spheroids, viability"
labelclass = "inactive"

[[record]]
molecule = "CC1(C)CCC(CN2CCN(c3ccc(C(=O)NS(=O)(=O)c4ccc(NCC5CCOCC5)c([N+](=O)[O-])c4)c(Oc4cnc5[nH]ccc5c4)c3)CC2)=C(c2ccc(Cl)cc2)C1 + NC1CCC(NC2CC2c2ccccc2)CC1"
tgt = "SW 1271 complex spheroids, viability"
labelclass = "inactive"

[[record]]
molecule = "O=C(C=Cn1cnc(-c2cc(C(F)(F)F)cc(C(F)(F)F)c2)n1)NNc1cnccn1 + NC1CCC(NC2CC2c2ccccc2)CC1"
tgt = "SW 1271 complex spheroids, viability"
labelclass = "inactive"

[[record]]
molecule = "CC(C)CC(NC(=O)C(Cc1ccccc1)NC(=O)c1cnccn1)B(O)O (stereo unspecified) + NC1CC1c1ccc(-c2cccc(O)c2)cc1"
tgt = "SW 1271 complex spheroids, viability"
labelclass = "active"

